target: Rat recombinant PDE10A (rPDE10A2) (Rattus norvegicus, UniProt Q9QYJ6); construct: inferred from the Ni metal chelate purification; made in house; host or cells: Sf9 insect cells (baculovirus); assay: In vitro assay PDE10A (SPA, 3H-cAMP); format: biochemical; settings: Table 4 in vitro selectivity; read-out: PDE 10A2 (expressed as pIC50) (converted)
Sequence (Q9QYJ6 whole entry): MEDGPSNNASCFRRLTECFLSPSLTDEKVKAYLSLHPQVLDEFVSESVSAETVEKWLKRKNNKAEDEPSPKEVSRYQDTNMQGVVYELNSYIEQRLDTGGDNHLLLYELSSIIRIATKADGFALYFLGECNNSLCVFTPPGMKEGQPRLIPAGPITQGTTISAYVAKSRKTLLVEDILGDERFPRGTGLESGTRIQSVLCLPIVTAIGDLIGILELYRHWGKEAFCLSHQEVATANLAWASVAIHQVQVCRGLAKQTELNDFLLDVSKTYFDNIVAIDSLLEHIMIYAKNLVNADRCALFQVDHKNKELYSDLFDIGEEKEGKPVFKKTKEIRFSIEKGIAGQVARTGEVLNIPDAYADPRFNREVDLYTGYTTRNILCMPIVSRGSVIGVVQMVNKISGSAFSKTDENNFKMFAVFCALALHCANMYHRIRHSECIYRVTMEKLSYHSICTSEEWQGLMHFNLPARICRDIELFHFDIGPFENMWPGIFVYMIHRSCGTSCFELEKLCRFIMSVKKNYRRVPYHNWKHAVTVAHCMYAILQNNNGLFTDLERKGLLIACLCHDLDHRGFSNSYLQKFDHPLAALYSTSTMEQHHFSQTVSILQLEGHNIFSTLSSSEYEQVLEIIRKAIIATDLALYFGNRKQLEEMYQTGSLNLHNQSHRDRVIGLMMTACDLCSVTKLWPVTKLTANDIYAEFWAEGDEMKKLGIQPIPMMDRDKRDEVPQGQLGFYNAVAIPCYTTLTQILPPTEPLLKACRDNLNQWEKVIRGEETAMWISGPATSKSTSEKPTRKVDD
IC50 strictly under 100 nM means fulfilled; at 100 nM or over means not fulfilled.

Observe how each entry below is paired with its result.
Prompt: Strictly below 100 nM: is that where IC50 of COC(C)(C)COc1ccc(-c2c(C)nc3c(N4CCOCC4)ccnn23)cn1 [compound 18] sits?
Completion: not fulfilled

Prompt: Is IC50 of COC(C)(C)Cc1ccc(-c2c(C3CC3)nc3c(-c4ccncc4)ccnn23)cn1 [compound 50] strictly below 100 nM?
Completion: fulfilled

Prompt: # strict comparison: is reported IC50 < 100 nM? input = COCCOc1ccc(-c2c(C3CC3)nc3c(-c4ccncc4)cc(C)nn23)cn1 [compound 72]
Completion: not fulfilled

Prompt: Dear colleague, could you confirm whether IC50 of COCCn1cc(-c2c(C)nc3c(N4CCCC4)ccnn23)cn1 [compound 136] falls below 100 nM? Thanks.
Completion: not fulfilled

Next:
Prompt: # strict comparison: is reported IC50 < 100 nM? input = CC(C)Cn1cc(-c2c(C3CC3)nc3c(-c4ccncc4)ccnn23)cn1 [compound 148]
Completion: fulfilled

Prompt: Decide: IC50 of Cc1nc2c(N3CCOCC3)ccnn2c1-c1ccc(N2CCNCC2)nc1 [compound 30] strictly below 100 nM?
Completion: not fulfilled

Prompt: Input Cc1cc(N2CCOCC2)c2nc(C)c(-c3ccc(N4CCOCC4)nc3)n2n1 [compound 68] ; condition: IC50 strictly below 100 nM. Does it hold?
Completion: not fulfilled

Prompt: Quick check: does Cc1nc2c(N3CCOCC3)cc(C3CC3)nn2c1-c1ccc(N2CCOCC2)nc1 [compound 94] have IC50 under 100 nM?
Completion: not fulfilled

Prompt: Hello, I'm reviewing records and need to know if IC50 of Cc1cc(N2CCOCC2)c2nc(C)c(-c3ccc(C4CC4)nc3)n2n1 [compound 110] is below 100 nM. Could you check?
Completion: not fulfilled

Prompt: Is it true that IC50 reported for COCCn1cc(-c2c(C)nc3c(-c4ccncc4)cc(C)nn23)cn1 [compound 134] is less than 100 nM?
Completion: not fulfilled

Prompt: Given COCCn1cc(-c2c(C)nc3c(N4CCOCC4)cc(C4CC4)nn23)cn1 [compound 125] , is recorded IC50 strictly lower than 100 nM?
Completion: fulfilled

Prompt: Is it true that IC50 reported for Cc1nc2c(N3CCOCC3)cc(Cl)nn2c1-c1cnn(CC(F)(F)F)c1 [compound 146] is less than 100 nM?
Completion: fulfilled
